# System: Bacillus subtilis
# TEST_DETAILS: Antibacterial activity against Bacillus subtilis by twofold serial dilution method
# Type: functional
EXPERIMENTAL_READOUT: MIC (µg/mL)

COMPOUND | UNIT_TEXT | MIC
COc1ccc(-n2nc(C)n(CCS(=O)(=O)c3ccccc3)c2=O)cc1 | µg/mL | 150
COc1ccc(-n2nc(C)n(CCSc3cccc(C(F)(F)F)c3)c2=O)cc1 | µg/mL | 150
CN[C@@H]1[C@H](O[C@H]2[C@H](O[C@H]3[C@H](O)[C@@H](O)[C@H](N=C(N)N)[C@@H](O)[C@@H]3N=C(N)N)O[C@@H](C)[C@]2(O)C=O)O[C@@H](CO)[C@H](O)[C@H]1O [STREPTOMYCIN] | µg/mL | 6.25
COc1ccc(-n2nc(C)n(CCS(=O)(=O)c3ccc(F)cc3)c2=O)cc1 | µg/mL | 75
COc1ccc(-n2nc(C)n(CCSc3nnc(-c4ccc(Cl)cc4)o3)c2=O)cc1 | µg/mL | 150

P: COc1ccc(-n2nc(C)n(CCSc3ccc(Br)cc3)c2=O)cc1
Q: COc1ccc(-n2nc(C)n(CCSc3cccc(F)c3)c2=O)cc1
R: COc1ccc(-n2nc(C)n(CCSc3cccc(OC)c3)c2=O)cc1
S: COc1ccc(-n2nc(C)n(CCSc3ccccc3F)c2=O)cc1
Number of compounds to sort: 4. Sort criterion: MIC, ascending. Write the labels, ordered according to the request. R, S, P, Q
(R: 18.8 µg/mL, S: 37.5 µg/mL, P: 75 µg/mL, Q: 150 µg/mL)

###

# System: Staphylococcus epidermidis
# TEST_DETAILS: Antibacterial activity against Staphylococcus epidermidis by twofold serial dilution method
# Assay type: functional
EXPERIMENTAL_READOUT: MIC (µg/mL)

MOLECULE_SMILES | EXPERIMENTAL_VALUE
COc1ccc(-n2nc(C)n(CCS(=O)(=O)c3ccccc3F)c2=O)cc1 | 75
COc1ccc(-n2nc(C)n(CCSc3nnc(-c4ccc(Cl)cc4)o3)c2=O)cc1 | 150
COc1ccc(-n2nc(C)n(CCS(=O)(=O)c3ccc(F)cc3)c2=O)cc1 | 37.5
CN[C@@H]1[C@H](O[C@H]2[C@H](O[C@H]3[C@H](O)[C@@H](O)[C@H](N=C(N)N)[C@@H](O)[C@@H]3N=C(N)N)O[C@@H](C)[C@]2(O)C=O)O[C@@H](CO)[C@H](O)[C@H]1O | 1.56

I: COc1ccc(-n2nc(C)n(CCS(=O)(=O)c3cccc(F)c3)c2=O)cc1
II: COc1ccc(-n2nc(C)n(CCS(=O)(=O)c3ccc(Br)cc3)c2=O)cc1
III: COc1ccc(-n2nc(C)n(CCS(=O)(=O)c3cccc(C(F)(F)F)c3)c2=O)cc1
Order field: MIC | Direction: descending (largest first) Write the labels, ordered according to the request. II, III, I

###

# System: Staphylococcus epidermidis
# TEST_DETAILS: Antibacterial activity against Staphylococcus epidermidis by twofold serial dilution method
# Format: functional
EXPERIMENTAL_READOUT: MIC (µg/mL)

COMPOUND | EXPERIMENTAL_VALUE
COc1ccc(-n2nc(C)n(CCSc3cccc(C(F)(F)F)c3)c2=O)cc1 | 150

a: CC1(C)S[C@@H]2[C@H](NC(=O)Cc3ccccc3)C(=O)N2[C@H]1C(=O)O [PENICILLIN G]
b: COc1ccc(-n2nc(C)n(CCSc3ccc(Br)cc3)c2=O)cc1
Select the item with the higher value of MIC from the options a and b listed. Give the label under which the chosen entry appears. b

I: COc1ccc(-n2nc(C)n(CCS(=O)(=O)c3ccccc3)c2=O)cc1
II: COc1ccc(-n2nc(C)n(CCSc3ccccc3F)c2=O)cc1
III: COc1ccc(-n2nc(C)n(CCSc3ccccc3)c2=O)cc1
Number of compounds to sort: 3. Sort criterion: MIC, ascending. Write the labels, ordered according to the request. III, I, II
(III: 37.5 µg/mL, I: 75 µg/mL, II: 150 µg/mL)
